B1: minF1; a variant is named by its letters at N, in order (parent)
chain: GAGACCGCAACTGAAAAGTTGTTNNNNAANNNNNGGNTNAATTTCTGCACGTAGAAGCAAAAGGC

# Variants of: B1
# Experiment Description: fraction ligated after 30 min (ligated reads / total reads); higher = more ligase activity
# Condition Set: with F1*subA RNA substrate (template-directed ligation), 42 °C
Measurement Kind: fraction ligated

mutant_code=ATAGGGATGTG experimental_value=0.00301

-- ask Data request, read-out fraction ligated, for TAGATGGATGT T23A
-- reply 0.00257
